Target: T1, recombinant human OX40L (extracellular domain, R&D Systems) (human, UniProt P23510 51-183)
T1 construct: also called hOX40L; rec. hOX40L
T1 sequence: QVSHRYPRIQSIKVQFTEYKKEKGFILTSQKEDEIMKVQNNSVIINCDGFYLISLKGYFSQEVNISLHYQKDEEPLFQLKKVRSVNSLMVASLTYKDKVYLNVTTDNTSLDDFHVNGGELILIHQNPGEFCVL
Assay: SPR, second injection after competitor OX40L01E10
measured-parameter: Binding Level sample 2 (RU)
Give just the number in RU; leave the unit off.

Field: example entries. Status: answers known.
OX40L19D08 (VHH, monovalent Nanobody from E. coli; not shown: C-terminal c-myc and His6 tag) VHH: EVQLVESGGGLVQAGASLRLSCAASGRRFISNYAMGWFRQAPGQERAFVAAISRSGSITYYTDSVKGRFSISRDYAKSTVYLQMDNLKPEDTAVYYCAADGGAVRDLTTNLPDYWGRGTQVTVSS: 275
OX40L15B07 (VHH, monovalent Nanobody from E. coli; not shown: C-terminal c-myc and His6 tag) VHH: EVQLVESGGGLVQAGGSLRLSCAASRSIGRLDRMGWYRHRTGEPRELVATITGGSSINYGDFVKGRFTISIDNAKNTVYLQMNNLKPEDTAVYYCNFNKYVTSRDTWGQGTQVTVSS: 237
OX40L01E07 (VHH, monovalent Nanobody from E. coli; not shown: C-terminal c-myc and His6 tag) VHH: EVQLVESGGGLVQAGGSLRLSCAASGRTFSSIYAKGWFRQAPGKEREFVAAISRSGRSTSYADSVKGRFTISRDNAKNTVYLQMNSLKPEDTAVYYCAAVGGATTVTASEWDYWGLGTQVTVSS: 289
OX40L18E09 (VHH, monovalent Nanobody from E. coli; not shown: C-terminal c-myc and His6 tag) VHH: EVQLVESGGGLVQAGGSLRLSCAASRNILSLNTMGWYRHAPGKPRELVARISSNSKTDYADSVKGRFTISRDNAKNTVLLQMNSLKPEDTGVYYCNLNVWRTSSDYWGQGTQVTVSS: 245

Okay, now this binder:
-- ask For the binder OX40L19A07 (VHH, monovalent Nanobody from E. coli; not shown: C-terminal c-myc and His6 tag) VHH: EVQLVESGGGLVQAGGSLRLSCAASGFTLDDYAIAWFRQAPGKEREGVSRIKISNGRTTYAGSVKGRFTISSDNAKNTVYLQMNSLNAEDTAVYYCAADRSSLLFGSNWDRKARYDYWGQGTQVTVSS , what Binding Level sample 2 (RU) is on record?
-- reply 239
